Please provide measured kon for the entries that follow.
# measured target: T1, hK1 (human tissue kallikrein 1), recombinant (human, UniProt P06870 25-262)
# T1 construct: Expressed in P. pastoris from KLK1 cDNA and purified; enzymatically active; also called KLK1; Recombinant (Pichia) Kallikrein
# experiment: SPR
Give bare numbers, in M⁻¹ s⁻¹.

Below, 2 binders whose answers are already recorded.
{"columns": ["binder", "kon / M⁻¹ s⁻¹"],
 "data": [
  ["M0093-C08 (Fab, V domains shown) VH: EVQLLESGGGLVQPGGSLRLSCAASGFTFSRYPMGWVRQAPGKGLEWVSSIYPSGGSTYYADSVKGRFTISRDNSKNTLYLQMNSLRAEDTAVYYCARVGVWYGMDVWGQGTTVTVSS VL: DIQMTQSPGTLSLSPGERATLSCRASQSVSSSYLAWYQQKPGQAPRLLIFAASTRATGIPDRFSGSGSATDFTLTISSLEPEDFAVYYCQQRSNWPPELTFSGGTKVEIKR", 142000],
  ["M0117-A12 (Fab, V domains shown) VH: EVQLLESGGGLVQPGGSLRLSCAASGFTFSNYKMSWVRQAPGKGLEWVSGIYPSGGLTQYADSVKGRFTISRDNSKNTLYLQMNSLRAEDTAVYYCAKVGVWYGMDVWGQGTTVTVSS VL: DIQMTQSPGTLSLSPGDRATLSCRASQSVGSDYLAWYQQKPGQAPRLLIYGASSRATGIPDRFSGSGSGTDFTLTISRLEPEDFAVYYCQQYGSSLYTFGQGTKLEIKR", 243000]
]}

Read the next record carefully.
Which kon is reported for this binder? M0132-H11 (Fab, V domains shown) VH: EVQLLESGGGLVQPGGSLRLSCAASGFTFSHYQMHWVRQAPGKGLEWVSRIRSSGGATSYADSVKGRFTISRDNSKNTLYLQMNSLRAEDTAVYYCARGGGYSYYFDYWGQGTLVTVSS VL: AQYELTQPPSASGTPGQRVTISCSGSSSNIGSNYVYWYQQLPGTAPKLLIYRNNQRPSGVPDRFSGSKSGTSASLAISGLRSEDEADYYCAAWDDSLSGHAVFGGGTQLTVLG
440000
